- system under test: TRKC (Homo sapiens, UniProt Q16288)
- Sequence (Q16288 32-839): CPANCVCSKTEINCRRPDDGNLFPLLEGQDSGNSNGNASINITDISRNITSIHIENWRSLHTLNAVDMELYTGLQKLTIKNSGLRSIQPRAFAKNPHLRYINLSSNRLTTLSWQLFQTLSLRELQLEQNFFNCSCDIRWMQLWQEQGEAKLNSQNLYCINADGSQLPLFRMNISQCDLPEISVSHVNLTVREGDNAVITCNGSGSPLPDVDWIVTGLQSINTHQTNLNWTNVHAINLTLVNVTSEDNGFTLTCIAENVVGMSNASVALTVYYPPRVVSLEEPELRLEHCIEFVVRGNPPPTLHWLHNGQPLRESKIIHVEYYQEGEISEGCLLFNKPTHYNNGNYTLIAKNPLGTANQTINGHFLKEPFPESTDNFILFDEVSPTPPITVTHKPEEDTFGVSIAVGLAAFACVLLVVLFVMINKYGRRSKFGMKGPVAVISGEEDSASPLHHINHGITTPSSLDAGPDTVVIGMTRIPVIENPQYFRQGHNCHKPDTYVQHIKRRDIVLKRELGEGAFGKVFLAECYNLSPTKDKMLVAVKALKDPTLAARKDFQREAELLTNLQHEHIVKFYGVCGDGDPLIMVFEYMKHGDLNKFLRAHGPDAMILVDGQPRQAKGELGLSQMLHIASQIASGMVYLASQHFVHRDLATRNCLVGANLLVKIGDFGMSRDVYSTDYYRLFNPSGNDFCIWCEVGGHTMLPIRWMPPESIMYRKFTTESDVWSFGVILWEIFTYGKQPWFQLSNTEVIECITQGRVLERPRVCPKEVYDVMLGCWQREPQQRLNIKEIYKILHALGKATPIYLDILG
parameter measured: IC50 (nM)
One number for each entry, in nM.

Entry [2H][C@@](C)(c1cccc(-c2ncc(OCC3CCN(C)CC3)cn2)c1)n1nc(-c2cccc(C#N)c2)ccc1=O has what IC50?
25.5

* * *

- System: MKN45
- assay: CCK8 antiproliferative assay
- Type: cell-based
- particulars: Homo sapiens, MKN-45, 72 h, read-out: IC50, cell proliferation
parameter measured: IC50 (nM)
Give bare numbers, in nM.

Entry CN1CCC(COc2cnc(-c3cccc(Cn4nc(-c5cccc(C#N)c5)ccc4=O)c3)nc2)CC1 [Tepotinib, reference compound] has what IC50?
1.65
